target: opiated mu receptor (Cavia porcellus, UniProt A0ACM8Q262); type: binding, guinea pig; settings: inhibition of 50% of radioligand bonds; read-out: CI50 affinity mu rec.
Sequence (A0ACM8Q262 1-400): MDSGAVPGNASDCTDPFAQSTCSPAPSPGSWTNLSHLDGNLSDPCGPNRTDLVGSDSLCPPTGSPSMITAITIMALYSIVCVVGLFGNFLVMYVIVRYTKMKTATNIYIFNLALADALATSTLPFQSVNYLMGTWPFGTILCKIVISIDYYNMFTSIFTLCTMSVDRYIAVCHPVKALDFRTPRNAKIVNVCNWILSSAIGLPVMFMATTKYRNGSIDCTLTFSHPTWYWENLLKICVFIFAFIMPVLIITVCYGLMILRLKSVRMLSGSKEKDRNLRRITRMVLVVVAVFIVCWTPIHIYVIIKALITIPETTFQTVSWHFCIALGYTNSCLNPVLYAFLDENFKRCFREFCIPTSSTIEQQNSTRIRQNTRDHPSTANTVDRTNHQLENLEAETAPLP
Measured IC50, listed per entry for reference.
measured.metric: IC50

INSERT INTO assay_data (compound, result) VALUES
  ('CCC(CC=Cc1ccc(Cl)c(Cl)c1)(NC)c1ccc(C)cc1 (centres unmarked) [Example 24]', '21 nM'),
  ('CCC(N)(CC=Cc1ccccc1)c1ccc(Cl)cc1 (single isomer, unassigned; (-)) [Example 17B]', '11.4 nM'),
  ('CNC(CC=Cc1ccc(Cl)c(Cl)c1)(c1ccccc1)C(C)C (centres unmarked) [Example 23]', '80 nM'),
  ('CCC(CC=Cc1ccc(Cl)c(Cl)c1)(c1ccc(OC)cc1)N(C)C (centres unmarked) [Example 46]', '12 nM'),
  ('CCC(CC=Cc1ccccc1)(c1ccc(Cl)cc1)N(C)C (centres unmarked) [Example 31]', '80 nM');

###

In this section, each of the molecules is paired with its reported pIC50.
target: opiated kappa receptor (Cavia porcellus, UniProt P41144)
Sequence (P41144 whole entry): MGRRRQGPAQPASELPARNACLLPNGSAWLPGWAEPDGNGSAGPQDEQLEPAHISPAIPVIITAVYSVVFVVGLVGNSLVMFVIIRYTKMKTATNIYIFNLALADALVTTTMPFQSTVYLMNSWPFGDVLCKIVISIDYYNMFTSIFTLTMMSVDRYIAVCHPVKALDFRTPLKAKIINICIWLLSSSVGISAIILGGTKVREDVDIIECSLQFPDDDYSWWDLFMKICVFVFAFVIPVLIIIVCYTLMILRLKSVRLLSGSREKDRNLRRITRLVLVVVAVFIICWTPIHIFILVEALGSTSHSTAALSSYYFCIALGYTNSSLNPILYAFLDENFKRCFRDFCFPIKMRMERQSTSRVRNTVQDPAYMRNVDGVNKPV
pIC50: −log10 of the molar value.
measured.metric: pIC50

INSERT INTO assay_data (molecule, result) VALUES
  ('CCC(CC=Cc1ccc(Cl)c(Cl)c1)(c1ccccc1)N(C)C (centres unmarked)', 6.66),
  ('CCC(CC=Cc1ccc(Cl)c(Cl)c1)(NC)c1ccc(Cl)cc1 (centres unmarked)', 6.34),
  ('CCC(CC=Cc1ccccc1)(c1ccc(C)cc1)N(C)C (centres unmarked)', 6.92),
  ('CCC(CC=Cc1ccc(Cl)c(Cl)c1)(c1ccc(C)cc1)N(C)C (centres unmarked)', 6.96),
  ('CNC(CC=Cc1ccc(Cl)c(Cl)c1)(c1ccccc1)C(C)C (centres unmarked)', 6.47),
  ('CCC(CC=Cc1ccccc1)(c1ccc(Cl)cc1)N(C)C (centres unmarked) [Example 31]', 6.68),
  ('CCC(CC=Cc1cc(OC)c(OC)c(OC)c1)(c1ccccc1)N(C)C (centres unmarked)', 6.64),
  ('CCC(CC=Cc1ccccc1)(c1ccc(OC)cc1)N(C)C (centres unmarked)', 6.54),
  ('CCC(CC=Cc1ccc(Cl)c(Cl)c1)(NC)c1ccc(OC)cc1 (centres unmarked)', 6.06),
  ('CCC(CC=Cc1ccc(Cl)c(Cl)c1)(NC)c1ccc(C)cc1 (centres unmarked)', 6.39),
  ('CCC(CC=Cc1ccccc1)(NC)c1ccc(Cl)cc1 (centres unmarked)', 6.58),
  ('CCC(CC=Cc1ccccc1)(c1ccc(Cl)cc1)N(C)C (single isomer, unassigned; (+)) [Example 52]', 7.00),
  ('CCC(CC=Cc1ccc(Cl)c(Cl)c1)(c1ccc(Cl)cc1)N(C)C (centres unmarked)', 6.71),
  ('CCC(CC=Cc1ccc(Cl)c(Cl)c1)(c1ccc(OC)cc1)N(C)C (centres unmarked)', 6.63);

###

A collection of molecules and their measured pIC50
molecular target: UniProtKB A0ACM8Q262; assay type: binding, guinea pig; conditions: inhibition of 50% of radioligand bonds; read-out: CI50 affinity mu rec.
pIC50: −log10 of the molar value.
measured.metric: pIC50

INSERT INTO results (molecule, result) VALUES
  ('CCC(CC=Cc1ccc(Cl)c(Cl)c1)(c1ccccc1)N(C)C (stereo not drawn)', 7.05),
  ('CCC(CC=Cc1ccc(Cl)c(Cl)c1)(NC)c1ccc(OC)cc1 (stereo not drawn)', 7.25),
  ('CCC(CC=Cc1ccc(Cl)c(Cl)c1)(NC)c1ccc(Cl)cc1 (stereo not drawn)', 7.55),
  ('CCC(CC=Cc1ccccc1)(NC)c1ccc(Cl)cc1 (stereo not drawn)', 6.70),
  ('CCC(CC=Cc1ccccc1)(c1ccc(Cl)cc1)N(C)C (single isomer, unassigned; (+)) [Example 52]', 8.15),
  ('CCC(CC=Cc1ccccc1)(c1ccc(OC)cc1)N(C)C (stereo not drawn)', 7.22),
  ('CCC(CC=Cc1ccc(Cl)c(Cl)c1)(c1ccc(Cl)cc1)N(C)C (stereo not drawn)', 7.80),
  ('CCC(CC=Cc1ccc(Cl)c(Cl)c1)(c1ccc(C)cc1)N(C)C (stereo not drawn)', 8.40),
  ('CCC(CC=Cc1cc(OC)c(OC)c(OC)c1)(c1ccccc1)N(C)C (stereo not drawn)', 7.00);

###

test system: convulsion induced by picrotoxine in mice; assay: Protection against picrotoxine-induced convulsion (suppression of the tonic extension phase); type: in vivo, male Swiss mice; details: Mus musculus, ip, 0.5 h, read-out: i.p.: % prot. (percentage of protected animals), 50 mg/kg i.p., picrotoxine 24 mg/kg i.p. 30 min later; * p<0.05, ** p<0.01, *** p<0.001
Assign class by responders at 50 mg/kg: not lower than 70% means TRUE; lower than 70% means FALSE.

INSERT INTO assay_data (compound, target_of_assay, assigned_category) VALUES
  ('CN(C)C(C)(CC=Cc1ccc(Cl)c(Cl)c1)c1ccccc1 (stereo not drawn)', 'convulsion induced by picrotoxine in mice', 'TRUE'),
  ('CCC(CC=Cc1ccccc1)(c1ccc(Cl)cc1)N(C)C (stereo not drawn) [Example 31]', 'convulsion induced by picrotoxine in mice', 'TRUE'),
  ('CCC(CC=Cc1ccccc1)(NC)c1cccc(C(F)(F)F)c1 (stereo not drawn)', 'convulsion induced by picrotoxine in mice', 'TRUE'),
  ('CCC(N)(CC=Cc1ccccc1)c1ccc(Cl)cc1 (stereo not drawn) [Example 4, a-cinnamyl-a-ethyl-p.chlorobenzylamine]', 'convulsion induced by picrotoxine in mice', 'FALSE'),
  ('CCC(N)(CC=Cc1ccccc1)c1ccc(Cl)c(Cl)c1 (stereo not drawn)', 'convulsion induced by picrotoxine in mice', 'FALSE'),
  ('CCC(CC=Cc1ccccc1)(NC)c1ccc(OC)cc1 (stereo not drawn)', 'convulsion induced by picrotoxine in mice', 'TRUE'),
  ('CC(N)(CC=Cc1ccc(Cl)c(Cl)c1)c1ccccc1 (stereo not drawn)', 'convulsion induced by picrotoxine in mice', 'TRUE');

###

tested on: convulsion induced by picrotoxine in mice; assay: Protection against picrotoxine-induced convulsion (suppression of the tonic extension phase); format: in vivo, male Swiss mice; details: Mus musculus, ip, read-out: i.p.: DE50
measured.metric: ED50 (mg/kg)

INSERT INTO assay_data (compound, comparison_operator, result) VALUES
  ('CCC(N)(CC=Cc1ccc(Cl)c(Cl)c1)c1cccc(C(F)(F)F)c1 (stereo not shown) [Example 15]', '>', 25),
  ('CCCN(C)C(CC)(CC=Cc1ccccc1)c1ccccc1 (stereo not shown) [Example 47]', '=', 58.2),
  ('CCC(N)(CC=Cc1ccc(Cl)c(Cl)c1)c1ccc(OC)cc1 (stereo not shown) [Example 13]', '=', 23.2),
  ('CCC(CC=Cc1ccc(Cl)c(Cl)c1)(c1ccc(OC)cc1)N(C)C (stereo not shown) [Example 46]', '=', 29.8),
  ('CCC(N)(CC=Cc1ccc(Cl)c(Cl)c1)c1ccc(C)cc1 (stereo not shown) [Example 12]', '=', 37.3),
  ('CCC(CC=Cc1ccc(Cl)c(Cl)c1)(c1ccc(C)cc1)N(C)C (stereo not shown) [Example 44]', '=', 21.4),
  ('CN(C)C(C)(CC=Cc1ccccc1)c1ccccc1 (stereo not shown) [Example 40]', '=', 16.6);

###

target: opiated mu receptor (Cavia porcellus); type: binding, guinea pig; conditions: read-out: CI50 affinity mu rec.; inhibition of 50% of radioligand bonds
measured.metric: IC50 (nM)

INSERT INTO results (compound, unit_info, result) VALUES
  ('CCC(CC=Cc1ccccc1)(c1ccc(C)cc1)N(C)C (stereo not shown)', 'nM', 50);

###

test system: convulsion induced by picrotoxine in mice; experiment: Protection against picrotoxine-induced convulsion (suppression of the tonic extension phase); format: in vivo, male Swiss mice; settings: Mus musculus, ip, 0.5 h, read-out: i.p.: % prot. (percentage of protected animals), 50 mg/kg i.p., picrotoxine 24 mg/kg i.p. 30 min later; * p<0.05, ** p<0.01, *** p<0.001
The label depends only on responders at 50 mg/kg: true (1) if it is at least 80%, false (0) if it is smaller.

INSERT INTO assay_data (molecule, assigned_category) VALUES
  ('CCC(CC=Cc1ccccc1)(c1ccsc1)N(C)C (stereo not shown) [Example 67]', 'false (0)'),
  ('CCC(CC=Cc1ccccc1)(c1ccc(Cl)c(Cl)c1)N(C)C (stereo not shown) [Example 32]', 'false (0)'),
  ('CCC(CC=Cc1ccccc1)(NC)c1ccccc1 (single isomer, unassigned; (-)) [Example 28]', 'true (1)'),
  ('CCC(CC=Cc1ccccc1)(c1ccco1)N(C)C (stereo not shown) [Example 59]', 'true (1)'),
  ('CCC(CC=Cc1ccsc1)(c1ccccc1)N(C)C (stereo not shown) [Example 56]', 'false (0)'),
  ('CCC(N)(CC=Cc1ccccc1)c1cccc(C(F)(F)F)c1 (stereo not shown) [Example 7]', 'true (1)'),
  ('CNC(CC=Cc1ccc(Cl)c(Cl)c1)(c1ccccc1)C(C)C (stereo not shown) [Example 23]', 'false (0)'),
  ('CCC(C[C@@H]1C[C@H]1c1ccccc1)(c1cccs1)N(C)C (relative stereo) [Example 63]', 'false (0)'),
  ('CCC(C[C@@H]1C[C@H]1c1ccccc1)(c1ccccn1)N(C)C (relative stereo) [Example 58]', 'false (0)'),
  ('CCC(CC=Cc1cccs1)(c1ccccc1)N(C)C (stereo not shown) [Example 55]', 'false (0)'),
  ('CCC(N)(CC=Cc1ccccc1)c1ccccc1 (single isomer, unassigned) [Example 16A]', 'true (1)'),
  ('CCC(CC=Cc1ccccc1)(c1ccc(Cl)cc1)N(C)C (single isomer, unassigned; (+)) [Example 52]', 'false (0)'),
  ('CCC(N)(CC=Cc1ccc(Cl)c(Cl)c1)c1ccccc1 (stereo not shown) [Example 10]', 'true (1)'),
  ('CCC(CC=Cc1ccccc1)(c1ccccc1)N(C)C (stereo not shown) [Example 30]', 'true (1)'),
  ('CCC(CC=Cc1ccco1)(c1cccs1)N(C)C (stereo not shown) [Example 64]', 'false (0)');
